Test summary: Pharmacokinetic measurements of H3B-6527 capsules in patients (trial NCT02834780), plasma LC-MS/MS
Assay type: in vivo, human
Condition: human, plasma, oral, 600 mg, 600 mg QD, fasted, Day 8; Table 5, nominal times; read-out: Tmax, median (min-max)
Description: A description of the first in human clinical trial for H3B-6527 can be found at the ClinicalTrials.gov by searching for trial identifier NCT02834780. […] Blood samples are collected at the planned time points from each patient and centrifuged. […] The concentration data are then analyzed using Phoenix® WinNonlin software to obtain PK parameters. […]
Experimental endpoint: Tmax (min)
Return type: number; implicit unit min.

Which Tmax value belongs to `C=CC(=O)Nc1cc(N2CCN(CC)CC2)ccc1Nc1cc(N(C)C(=O)Nc2c(Cl)c(OC)cc(OC)c2Cl)ncn1` ? 31.2

###

Test summary: Pharmacokinetic measurements of H3B-6527 capsules in patients (trial NCT02834780), plasma LC-MS/MS
Assay type: in vivo, human
Condition: human, plasma, oral, 700 mg, 700 mg BID, fed, Day 1; Table 5, nominal times; read-out: Half-life, geometric mean (CV%) (converted)
Method: A description of the first in human clinical trial for H3B-6527 can be found at the ClinicalTrials.gov by searching for trial identifier NCT02834780. […] Blood samples are collected at the planned time points from each patient and centrifuged. […] The concentration data are then analyzed using Phoenix® WinNonlin software to obtain PK parameters. […]
Experimental endpoint: half-life (h)
I only need the number, in h, no unit after it.

Reported half-life for `C=CC(=O)Nc1cc(N2CCN(CC)CC2)ccc1Nc1cc(N(C)C(=O)Nc2c(Cl)c(OC)cc(OC)c2Cl)ncn1` : what is it? 2.1

###

Test summary: Pharmacokinetic measurements of H3B-6527 capsules in patients (trial NCT02834780), plasma LC-MS/MS
Assay type: in vivo, human
Condition: 500 mg BID, fed, Day 8; Table 5, nominal times
Experimental endpoint: AUC, geometric mean (CV%) (ng·h/mL)
Kindly answer with a numeric value in ng·h/mL, unit omitted.

Recorded AUC, geometric mean (CV%) of `C=CC(=O)Nc1cc(N2CCN(CC)CC2)ccc1Nc1cc(N(C)C(=O)Nc2c(Cl)c(OC)cc(OC)c2Cl)ncn1` , please. 1080

###

Test summary: Pharmacokinetic measurements of H3B-6527 capsules in patients (trial NCT02834780), plasma LC-MS/MS
Format: in vivo, human
Condition: human, plasma, oral, 1400 mg, 1400 mg QD, fed, Day 1; Table 6, actual times after QC; read-out: AUC, geometric mean (CV%)
Experimental endpoint: AUC (ng·h/mL)
Kindly provide the numeric value in ng·h/mL only, without the unit symbol.

What does the data say about its AUC? Entry: `C=CC(=O)Nc1cc(N2CCN(CC)CC2)ccc1Nc1cc(N(C)C(=O)Nc2c(Cl)c(OC)cc(OC)c2Cl)ncn1` 5670

###

Test summary: Pharmacokinetic measurements of H3B-6527 capsules in patients (trial NCT02834780), plasma LC-MS/MS
Assay type: in vivo, human
Condition: human, plasma, oral, 2000 mg, 2000 mg QD, fed, Day 1; Table 5, nominal times; read-out: Cmax, geometric mean (CV%)
Experimental endpoint: Cmax (ng/mL)
Write down the numeric answer in ng/mL and omit the unit.

Which value of Cmax has been reported for `C=CC(=O)Nc1cc(N2CCN(CC)CC2)ccc1Nc1cc(N(C)C(=O)Nc2c(Cl)c(OC)cc(OC)c2Cl)ncn1` in the records? 525
